pKd overview
# target.or.system: T1, human DLL3 (ACRO, DLL3-H52H4) (human, UniProt Q9NYJ7 27-492)
# T1 construct: Bought
# T1 sequence: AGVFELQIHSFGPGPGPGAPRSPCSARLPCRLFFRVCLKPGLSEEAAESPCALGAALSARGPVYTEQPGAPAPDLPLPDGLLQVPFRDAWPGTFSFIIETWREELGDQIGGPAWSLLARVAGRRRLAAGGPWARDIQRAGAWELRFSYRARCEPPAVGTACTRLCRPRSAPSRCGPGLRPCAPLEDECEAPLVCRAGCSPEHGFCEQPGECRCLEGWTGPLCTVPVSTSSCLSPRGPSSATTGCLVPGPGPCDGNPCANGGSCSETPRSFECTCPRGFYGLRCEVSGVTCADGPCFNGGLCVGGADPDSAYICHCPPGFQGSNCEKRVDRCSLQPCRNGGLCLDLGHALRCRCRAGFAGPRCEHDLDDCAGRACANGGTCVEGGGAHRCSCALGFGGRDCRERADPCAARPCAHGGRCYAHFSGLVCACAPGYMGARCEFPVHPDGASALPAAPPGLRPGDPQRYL
# method.description: SPR Biacore 8K, Ab captured on Protein A
# Description: Test antibodies were affinity-captured with a Protein A biosensor chip (Cat. #29127556, Cytiva) for 18 seconds, and then the antigens human DLL3 (ACRO, DLL3-H52H4), cynomolgus monkey DLL3 (KACTUS, DLL-RM103), mouse DLL3 (KACTUS, DLL-MM103), human CD3D&3E (ACRO, CDD-H52W1), and monkey CD3D&3E (ACRO, CDD-C52W4) were allowed to flow through the surface of the chip for 180 seconds, followed by 600 seconds of dissociation. […]
Bear in mind: pKd is minus log10 of a mol/L concentration; give just that figure.

hu30L1H5 (antibody, human IgG1, kappa, V domains shown) VH: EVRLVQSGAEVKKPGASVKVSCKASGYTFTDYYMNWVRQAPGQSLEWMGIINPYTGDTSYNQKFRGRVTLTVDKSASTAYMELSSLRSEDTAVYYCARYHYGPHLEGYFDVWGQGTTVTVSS VL: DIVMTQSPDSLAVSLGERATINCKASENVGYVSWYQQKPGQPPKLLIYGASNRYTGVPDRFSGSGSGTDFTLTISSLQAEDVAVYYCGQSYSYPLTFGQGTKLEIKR = 9.02
hu30L3H4 (antibody, human IgG1, kappa, V domains shown) VH: EVRLVQSGAEVKKPGASVKVSCKASGYTFTDYYMNWVRQAPGQSLEWMGIINPYSGDTSYNQKFRGRVTLTVDKSASTAYMELSSLRSEDTAVYYCARYHYGPHLEGYFDVWGQGTTVTVSS VL: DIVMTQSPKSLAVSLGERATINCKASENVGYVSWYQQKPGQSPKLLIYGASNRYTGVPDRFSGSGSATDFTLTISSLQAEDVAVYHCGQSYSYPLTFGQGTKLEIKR = 9.05

Lab note: measured pKd of hu110L2H4 (antibody, human IgG1, kappa, V domains shown) VH: EVQLVQSGAEVKKPGASVKVSCKTSGYTFTDYYMNWVRQAPGQSLEWMGIINPYSGGTSYTQKFKGRVTITVDKSASTAYMELSSLRSEDTAVYYCARHFYDSSYLTYSTMDYWGQGTTVTVSS VL: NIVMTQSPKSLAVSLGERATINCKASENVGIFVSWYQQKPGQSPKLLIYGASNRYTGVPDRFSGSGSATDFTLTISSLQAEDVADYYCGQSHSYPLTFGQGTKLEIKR was 9.99
